TARGET_OR_SYSTEM: human RXFP1 (Homo sapiens)
Construct: expressed in transfected cells
Sequence (Q9HBX9 1-757): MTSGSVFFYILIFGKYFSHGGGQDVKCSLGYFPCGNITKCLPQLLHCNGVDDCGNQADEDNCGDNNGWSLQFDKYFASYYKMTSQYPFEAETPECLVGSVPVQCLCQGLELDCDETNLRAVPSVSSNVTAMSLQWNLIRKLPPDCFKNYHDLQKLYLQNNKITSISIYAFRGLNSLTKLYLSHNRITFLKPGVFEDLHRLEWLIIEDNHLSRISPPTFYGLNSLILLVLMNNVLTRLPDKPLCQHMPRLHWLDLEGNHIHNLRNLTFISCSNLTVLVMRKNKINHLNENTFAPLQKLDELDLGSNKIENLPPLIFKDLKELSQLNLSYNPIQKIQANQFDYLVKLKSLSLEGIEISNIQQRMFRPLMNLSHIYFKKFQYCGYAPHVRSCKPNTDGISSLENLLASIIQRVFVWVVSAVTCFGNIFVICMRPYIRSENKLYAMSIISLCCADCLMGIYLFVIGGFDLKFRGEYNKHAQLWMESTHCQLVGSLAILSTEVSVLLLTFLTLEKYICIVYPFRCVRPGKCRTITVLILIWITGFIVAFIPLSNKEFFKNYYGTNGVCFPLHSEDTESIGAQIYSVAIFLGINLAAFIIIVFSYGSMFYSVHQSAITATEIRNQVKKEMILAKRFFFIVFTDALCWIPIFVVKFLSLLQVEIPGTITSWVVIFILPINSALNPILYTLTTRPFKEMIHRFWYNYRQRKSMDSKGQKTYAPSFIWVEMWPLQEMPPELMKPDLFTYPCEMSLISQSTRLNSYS
PROTOCOL_NOTES: hRXFP1 HEK293 cAMP assay (HTRF)
Type: cell-based
ASSAY_SETUP: HEK293 cells stably expressing human RXFP1; phenylcyclohexyl (tetraline) examples
pEC50: −log10 of the molar value.
READOUT_NAME: pEC50

- COMPOUND: "COc1ccc(-c2cc(C(=O)NCC3CCC3)ccc2F)cc1C(=O)Nc1cc2c(cc1C(=O)Nc1ccc(F)c(C(F)(F)F)c1)CCCC2"
  TARGET_OR_SYSTEM: "human RXFP1 (Homo sapiens)"
  VALUE_MEASURED: 5.38

a: COc1ccc(N2CCCS2(=O)=O)cc1C(=O)Nc1cc2c(cc1C(=O)Nc1ccc(F)c(C(F)(F)F)c1)CCCC2
b: COc1ccc(C2=NOC3CNCC23)cc1C(=O)Nc1cc2c(cc1C(=O)Nc1ccc(F)c(C(F)(F)F)c1)CCCC2 (mixture of isomers)
Kindly identify which of a and b has the larger recorded pEC50 value. // output: label of the selected item
a

---

TARGET_OR_SYSTEM: human RXFP1 (Homo sapiens)
Construct: expressed in transfected cells
Sequence (Q9HBX9 1-757): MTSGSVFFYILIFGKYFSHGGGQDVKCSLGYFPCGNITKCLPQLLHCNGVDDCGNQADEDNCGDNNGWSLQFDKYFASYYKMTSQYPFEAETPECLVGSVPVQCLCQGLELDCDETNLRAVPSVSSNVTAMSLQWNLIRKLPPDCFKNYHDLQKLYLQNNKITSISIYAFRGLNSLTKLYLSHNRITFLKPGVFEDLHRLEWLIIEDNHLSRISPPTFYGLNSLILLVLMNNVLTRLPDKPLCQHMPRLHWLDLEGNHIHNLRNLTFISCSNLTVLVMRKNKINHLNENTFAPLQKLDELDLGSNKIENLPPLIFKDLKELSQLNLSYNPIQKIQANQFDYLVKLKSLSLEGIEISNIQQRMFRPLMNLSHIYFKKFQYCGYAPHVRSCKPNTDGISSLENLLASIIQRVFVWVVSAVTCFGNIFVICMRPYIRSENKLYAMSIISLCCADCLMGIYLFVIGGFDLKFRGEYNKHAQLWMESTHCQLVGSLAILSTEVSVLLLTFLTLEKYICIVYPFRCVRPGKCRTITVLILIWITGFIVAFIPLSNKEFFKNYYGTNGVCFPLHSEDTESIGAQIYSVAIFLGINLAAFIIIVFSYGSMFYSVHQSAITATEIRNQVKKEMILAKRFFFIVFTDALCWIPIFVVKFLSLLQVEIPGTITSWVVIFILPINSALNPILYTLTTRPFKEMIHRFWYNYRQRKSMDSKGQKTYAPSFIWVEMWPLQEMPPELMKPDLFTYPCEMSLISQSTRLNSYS
PROTOCOL_NOTES: hRXFP1 HEK293 cAMP assay (HTRF)
Format: cell-based
ASSAY_SETUP: HEK293 cells stably expressing human RXFP1; phenylcyclobutane examples
pEC50: −log10 of the molar value.
READOUT_NAME: pEC50

a: COc1ccc(-c2cc(C(=O)O)ccc2F)cc1C(=O)Nc1cc2c(cc1C(=O)Nc1ccc(F)c(C(F)(F)F)c1)CC2
b: COc1ccc(-c2cc(C(O)C(=O)O)ccc2F)cc1C(=O)Nc1cc2c(cc1C(=O)Nc1ccc(F)c(C(F)(F)F)c1)CC2 (stereo not drawn)
c: COc1ccc(-c2cc(C(NC(=O)C3CCOCC3)C(=O)O)ccc2F)cc1C(=O)Nc1cc2c(cc1C(=O)Nc1ccc(F)c(C(F)(F)F)c1)CC2 (stereo not drawn)
Give the ascending ranking of the items by reported pEC50. Please express your ranking as an ordered list of the labels.
a, b, c
(a: 5.62, b: 6.18, c: 8.10)

Cited source for all entries: patent US20260265208A1
